target: recombinant human estrone sulfatase (Homo sapiens, UniProt P08842); experiment: Estrone sulfatase (steroid sulfatase) inhibition test (Method A), [3H]-estrone sulfate substrate; assay type: biochemical; details: [6,7-3H]-estrone sulfate 6.67 μmol/L, pH 7.5, 37° C., 30 minutes, read-out: Inhibitory Activity against Steroid Sulfatase IC50
Sequence (P08842 22-583): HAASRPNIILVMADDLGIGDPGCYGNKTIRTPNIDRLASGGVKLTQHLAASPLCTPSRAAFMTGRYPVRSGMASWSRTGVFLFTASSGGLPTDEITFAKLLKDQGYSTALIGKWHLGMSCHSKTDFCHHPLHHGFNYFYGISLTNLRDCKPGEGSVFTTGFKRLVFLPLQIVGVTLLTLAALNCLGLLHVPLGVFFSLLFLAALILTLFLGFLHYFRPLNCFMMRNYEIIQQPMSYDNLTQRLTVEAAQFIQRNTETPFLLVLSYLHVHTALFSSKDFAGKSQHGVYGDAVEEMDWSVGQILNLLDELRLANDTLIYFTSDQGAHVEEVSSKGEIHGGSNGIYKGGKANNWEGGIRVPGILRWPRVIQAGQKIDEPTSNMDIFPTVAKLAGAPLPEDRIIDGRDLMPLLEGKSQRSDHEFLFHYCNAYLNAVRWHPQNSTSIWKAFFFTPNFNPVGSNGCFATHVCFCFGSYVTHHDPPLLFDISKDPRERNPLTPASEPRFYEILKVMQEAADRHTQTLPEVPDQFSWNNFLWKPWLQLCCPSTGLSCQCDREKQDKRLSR
Entries annotated with measured IC50
Give the number first and the unit second.

Solved entries (count: 4):
• CCCNC(=O)C=C1CCC2C3CCc4cc(OS(N)(=O)=O)ccc4C3CCC12C (stereo not drawn) = 6.2 nM
• COC(=O)C1CCCN1C(=O)C1=CCC2C3CCc4cc(OS(N)(=O)=O)ccc4C3CCC12C (stereo not drawn) = 5.1 nM
• COC(=O)CCCCCNC(=O)C1=CCC2C3CCc4cc(OS(N)(=O)=O)ccc4C3CCC12C (stereo not drawn) = 10 nM
• CC12CCC3c4ccc(OS(N)(=O)=O)cc4CCC3C1CC=C2C(=O)Nc1cnccn1 (stereo not drawn) = 9.4 nM

Specify reported IC50 for the compound shown: CC12CCC3c4ccc(OS(N)(=O)=O)cc4CCC3C1CC=C2C(=O)NCC1CC1 (stereo not drawn)
3.6 nM

Specify reported IC50 for the compound shown: CC12CCC3c4ccc(OS(N)(=O)=O)cc4CCC3C1CC=C2C(=O)Nc1ccccc1 (stereo not drawn)
10 nM
